- Tested on: HEL92.1.7
- Assay protocol: Cell growth inhibition assay, blood cancer cell line HEL92.1.7
- Assay type: cell-based
- Measurement conditions: Homo sapiens, HEL 92.1.7, HEL92.1.7 blood cancer cell line
- Experimental: The inhibitory effects of the compounds of the present invention against the growth of cancer cells were evaluated as shown below. […] Subsequently, the cells were observed under microscope and drug precipitation and particular findings were investigated and recorded. […]
Parameter: IC50 (µM)
Give bare numbers, in µM.

# Chemical string, IC50 / µM
data = [
    ("CC(C)(c1ccc(Cl)cc1)c1cc(Cl)cc(NC(=O)c2cc3cc(NS(C)(=O)=O)ccc3s2)c1", 0.22),
]

For each of the items listed, what is its IC50?
1. CC(C)Oc1cc(OC(F)(F)F)cc(C(C)(C)c2cc(Cl)cc(NC(=O)c3cc4cc(NS(=O)(=O)c5cnn(C)c5)ccc4s3)c2)c1
2. CC(C)Oc1cc(N2CCCC2)cc(C(C)(C)c2cc(Cl)cc(NC(=O)c3cc4cc(NS(C)(=O)=O)ccc4s3)c2)c1
3. CS(=O)(=O)Nc1cc2cc(C(=O)Nc3cc(Cl)cc(-c4ccc(F)cc4F)c3)sc2cc1F
4. CC(C)Oc1cc(-c2ccnn2C)cc(C(C)(C)c2cc(Cl)cc(NC(=O)c3cc4cc(NS(C)(=O)=O)ccc4s3)c2)c1
5. COc1cc(NC(=O)c2cc3cc(NS(C)(=O)=O)ccc3s2)cc(C(C)(C)c2cc(OC)cc(OC(F)(F)F)c2)c1
6. CC(C)Oc1cc(OC(F)(F)F)cc(C(C)(C)c2cc(Cl)cc(NC(=O)c3cc4cc(NS(=O)(=O)C(C)C)ccc4s3)c2)c1
7. CC(C)Oc1cc(OC(F)(F)F)cc(C(C)(C)c2cc(Cl)cc(NC(=O)c3cc4cc(NS(=O)(=O)CCN(C)O)ccc4s3)c2)c1
8. CC(C)Oc1cc(OC(F)(F)F)cc(C(C)(C)c2cc(Cl)cc(NC(=O)c3cc4c(F)c(NS(C)(=O)=O)ccc4s3)c2)c1

*A*
1. 0.053
2. 0.32
3. 0.049
4. 0.33
5. 0.2
6. 0.017
7. 0.57
8. 0.12

For each of the items listed, what is its IC50?
1. CC(C)Oc1cc(OC(F)(F)F)cc(C(C)(C)c2cc(Cl)cc(NC(=O)c3cc4cc(NS(=O)(=O)C5CCS(=O)(=O)CC5)ccc4s3)c2)c1
2. CS(=O)(=O)Nc1ccc2sc(C(=O)Nc3cc(Cl)cc(Oc4ccc(Cl)cc4)c3)cc2c1

*A*
[0.58, 0.15]

====

- Test system: LNCaP
- Assay protocol: Cell growth inhibition assay, prostate cancer cell line LNCaP (medium with 10 ng/mL IL-6)
- Assay type: cell-based
- Measurement conditions: Homo sapiens, medium supplemented with 10 ng/mL of IL-6, 10,000 cells/well
What IC50 was measured for each of the following?
Numbers only, in µM.

Some solved entries appear below for comparison.
# Chemical string, Units symbol, IC50
measured = [
    ("CC(C)Oc1cc(CN2CCN(S(C)(=O)=O)CC2)cc(C(C)(C)c2cc(Cl)cc(NC(=O)c3cc4cc(NS(C)(=O)=O)ccc4s3)c2)c1", "µM", 0.41),
    ("CS(=O)(=O)Nc1ccc2cc(C(=O)Nc3cc(-c4ccncc4)cc(-c4ccc(F)cc4F)c3)[nH]c2c1", "µM", 9.9),
    ("Nc1ccc2cc(C(=O)Nc3cccc(-c4ccc(F)cc4F)c3)[nH]c2c1", "µM", 8.6),
]

Turning now to a further compound:
*Q* Which IC50 value belongs to CS(=O)(=O)Nc1ccc2sc(C(=O)Nc3cc(Cl)cc(Oc4ccc(Cl)cc4Cl)c3)cc2c1 ?
*A* 0.33

====

- Assay system: STAT3 (Homo sapiens, UniProt P40763)
- Construct: plasmid pSTAT3-TA-luc), which contains a stably operating STAT3 promoter; endogenous in cells
- Sequence (P40763 whole entry): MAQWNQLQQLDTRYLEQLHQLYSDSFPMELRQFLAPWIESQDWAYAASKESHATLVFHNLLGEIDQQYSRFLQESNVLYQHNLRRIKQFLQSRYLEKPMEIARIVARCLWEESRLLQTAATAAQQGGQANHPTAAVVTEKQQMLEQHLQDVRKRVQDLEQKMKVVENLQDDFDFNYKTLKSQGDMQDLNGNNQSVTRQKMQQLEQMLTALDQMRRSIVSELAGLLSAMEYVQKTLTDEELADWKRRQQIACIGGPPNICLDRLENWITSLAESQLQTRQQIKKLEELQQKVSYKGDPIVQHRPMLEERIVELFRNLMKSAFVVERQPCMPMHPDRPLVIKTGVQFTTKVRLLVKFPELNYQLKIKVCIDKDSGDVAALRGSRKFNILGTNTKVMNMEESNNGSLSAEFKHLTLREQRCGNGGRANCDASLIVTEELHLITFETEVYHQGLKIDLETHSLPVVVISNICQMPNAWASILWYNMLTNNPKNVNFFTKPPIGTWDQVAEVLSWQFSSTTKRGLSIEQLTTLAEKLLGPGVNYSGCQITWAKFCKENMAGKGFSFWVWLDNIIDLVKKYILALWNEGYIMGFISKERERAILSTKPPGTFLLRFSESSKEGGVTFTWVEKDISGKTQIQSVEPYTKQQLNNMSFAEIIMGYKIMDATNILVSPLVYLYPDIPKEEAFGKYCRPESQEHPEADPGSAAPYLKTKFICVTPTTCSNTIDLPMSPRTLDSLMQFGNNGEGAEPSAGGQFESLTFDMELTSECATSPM
- Assay protocol: STAT3 reporter gene assay (luciferase), LNCaP stable cell line (pSTAT3-TA-luc), IL-6 stimulation
- Type: cell-based
- Procedure: 1-1) Experiment on the Inhibition of STAT3 Activity […] The luciferase assay and the cell viability assay were performed respectively with one of the two plates. […] After shaking the plate for 30 minutes, luciferase activities of each well were measured in a PHERAstar™ microplate reader (BMG LABTECH) using a luciferase assay system (Cat No. E1501, Promega). […]
What IC50 was measured for each of the following?
Give bare numbers, in µM.

For each of the items listed, what is its IC50?
1. CC(C)(c1ccc(F)cc1)c1cccc(NC(=O)c2cc3ccc(NS(C)(=O)=O)cc3[nH]2)c1
2. Cc1nc2ccc(S(=O)(=O)c3cccc(NC(=O)c4cc5ccc(NS(C)(=O)=O)cc5[nH]4)c3)cc2s1
3. CC(=O)c1cc(NC(=O)c2cc3ccc(NS(C)(=O)=O)cc3[nH]2)cc(-c2ccc(F)cc2F)c1
4. CS(=O)(=O)Nc1ccc2cc(C(=O)Nc3cccc(-c4ccc(N)cc4C(F)(F)F)c3)[nH]c2c1

*A*
1. 0.19
2. 3.1
3. 1.4
4. 4.3

====

- Assay system: STAT3 (Homo sapiens)
- Construct: plasmid pSTAT3-TA-luc), which contains a stably operating STAT3 promoter; endogenous in cells
- Assay protocol: STAT3 reporter gene assay (luciferase), LNCaP stable cell line (pSTAT3-TA-luc), IL-6 stimulation
- Type: cell-based
Parameter: log10 of IC50 (log10 of the value in µM)
// do not treat as linear: log10 of IC50, unit µM

Some solved entries appear below for comparison.
# Compound, Assay system, log10 of IC50
rows = [
    ("CC(C)(c1ccc(F)cc1)c1cccc(NC(=O)c2sc3cc(NS(C)(=O)=O)ccc3c2Cl)c1 [Example 110]", "STAT3 (Homo sapiens)", 0.63),
    ("CNS(=O)(=O)Nc1ccc2cc(C(=O)Nc3cccc(-c4ccccc4C(F)(F)F)c3)[nH]c2c1 [Example 269]", "STAT3 (Homo sapiens)", 0.36),
    ("CC(C)(c1cccc(C#N)c1)c1cccc(NC(=O)c2cc3cc(NS(C)(=O)=O)ccc3s2)c1 [Example 224]", "STAT3 (Homo sapiens)", -0.59),
]

For each of the items listed, what is its log10 of IC50?
1. O=C(Nc1cc(Cl)cc(-c2ccc(F)cc2F)c1)c1cc2cc(NS(=O)(=O)C3CCOC3)c(F)cc2s1 (stereo not shown) [Example 330]
2. CC(C)(c1cc(Br)cc(NC(=O)c2cc3cc(NS(C)(=O)=O)ccc3s2)c1)c1cc(CN2CCN(C3COC3)CC2)cc(OC(F)(F)C(F)F)c1 [Example 141]

*A*
1: -1.54; 2: -0.42

*Q* Which log10 of IC50 value belongs to CS(=O)(=O)Nc1ccc2sc(C(=O)Nc3cc(Cl)cc(-c4cncc(Cl)n4)c3)cc2c1 [Example 339] ?
*A* -0.12

====

- System: HEL92.1.7
- Assay protocol: Cell growth inhibition assay, blood cancer cell line HEL92.1.7
- Assay type: cell-based
- Measurement conditions: Homo sapiens, HEL 92.1.7, HEL92.1.7 blood cancer cell line
Parameter: IC50 (µM)
One number for each entry, in µM.

For each of the items listed, what is its IC50?
1. CC(C)Oc1cc(CN2CCN(c3noc(C(C)C)n3)CC2)cc(C(C)(C)c2cc(Cl)cc(NC(=O)c3cc4cc(NS(C)(=O)=O)ccc4s3)c2)c1 [Example 129]
2. CC(C)Oc1cc(CN2CCN(C(=O)OC(C)(C)C)CC2)cc(C(C)(C)c2cc(Br)cc(NC(=O)c3cc4cc(NS(C)(=O)=O)ccc4s3)c2)c1 [Example 123]

*A*
0.24
0.11

====

- Test system: HEL92.1.7
- Assay protocol: Cell growth inhibition assay, blood cancer cell line HEL92.1.7
- Format: cell-based
- Measurement conditions: Homo sapiens, HEL 92.1.7, HEL92.1.7 blood cancer cell line
Parameter: IC50 (µM)
One number for each entry, in µM.

# Chemical string, Units symbol, IC50
rows = [
    ("CC(C)Oc1cc(OC(F)(F)F)cc(C(C)(C)c2cc(Cl)cc(NC(=O)c3cc4cc(NS(=O)(=O)CCN(C)C)ccc4s3)c2)c1", "µM", 0.33),
]

For each of the items listed, what is its IC50?
1. COc1cc(OC(F)(F)F)cc(C(C)(C)c2cc(Cl)nc(NC(=O)c3cc4cc(NS(C)(=O)=O)ccc4s3)c2)c1
2. COc1cc(F)cc(C(C)(C)c2cc(Cl)cc(NC(=O)c3cc4cc(NS(C)(=O)=O)ccc4s3)c2)c1
3. CS(=O)(=O)Nc1ccc2sc(C(=O)Nc3cc(Cl)cc(Oc4ccc(F)cc4F)c3)cc2c1
4. CC(C)(c1cc(F)cc(NC(=O)c2cc3cc(NS(C)(=O)=O)ccc3s2)c1)c1cc(OC(F)(F)F)cc(OC(F)(F)C(F)F)c1

*A*
1. 1
2. 0.11
3. 0.65
4. 0.076

*Q* Which IC50 value belongs to COc1cc(OC(F)(F)F)cc(C(C)(C)c2cc(Cl)cc(NC(=O)c3cc4ccc(NS(C)(=O)=O)cc4[nH]3)c2)c1 ?
*A* 0.12

Sourced from patent US10562912B2
